assay_system: Thromboxane A2 receptor (Homo sapiens, UniProt P21731)
experiment_summary: Displacement of [3H]-SQ29548 from human TP receptor expressed in CHO cells after 30 mins by liquid scintillation counting
Format: cell-based
endpoint_name: IC50

Please give the documented IC50 of `Cc1c(CC(=O)O)c2cc(F)ccc2n1C(=O)c1ccc(OC[C@@H]2CN(C)c3ccccc3O2)cc1Cl`
> 10 µM

Assign IC50 to the following record: `CCN1c2ccccc2C[C@@H]1COc1ccc(C(=O)n2c(C)c(CC(=O)O)c3ccccc32)c(C)c1`
7.6 µM

Given the molecule `Cc1cc(OC[C@@H]2CN(C)c3ccccc3O2)ccc1C(=O)n1c(C)c(CC(=O)O)c2ccccc21` , write its reported IC50.
> 10 µM

* * *

pKi: −log10 of the molar value.
These molecules were tested on Prostaglandin E2 receptor EP4 subtype (Mus musculus, UniProt P32240); pKi is the recorded read-out.
Sequence (P32240 whole entry): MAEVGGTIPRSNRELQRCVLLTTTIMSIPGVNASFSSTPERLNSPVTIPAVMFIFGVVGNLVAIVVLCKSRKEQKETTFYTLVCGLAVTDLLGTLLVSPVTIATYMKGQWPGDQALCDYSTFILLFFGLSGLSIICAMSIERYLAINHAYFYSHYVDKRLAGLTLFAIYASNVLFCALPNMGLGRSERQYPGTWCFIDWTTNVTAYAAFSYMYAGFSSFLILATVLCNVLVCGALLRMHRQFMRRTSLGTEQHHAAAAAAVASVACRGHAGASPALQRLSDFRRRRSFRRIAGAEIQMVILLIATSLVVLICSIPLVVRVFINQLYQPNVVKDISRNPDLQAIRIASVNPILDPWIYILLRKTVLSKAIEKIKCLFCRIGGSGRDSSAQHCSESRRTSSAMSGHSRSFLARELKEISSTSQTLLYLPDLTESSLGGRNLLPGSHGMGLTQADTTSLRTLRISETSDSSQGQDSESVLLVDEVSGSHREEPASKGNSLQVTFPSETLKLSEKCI

See these solved cases before continuing.
entry_smiles | assay_system | pKi
Cc1c(CC(=O)O)c2cc(F)ccc2n1C(=O)c1ccc(OC[C@@H]2CN(C)c3ccccc3O2)cc1 | Prostaglandin E2 receptor EP4 subtype (Mus musculus, UniProt P32240) | < 5.00
Cc1cc(OC[C@@H]2CN(C)c3ccccc3O2)ccc1C(=O)n1c(C)c(CC(=O)O)c2ccccc21 | Prostaglandin E2 receptor EP4 subtype (Mus musculus, UniProt P32240) | < 5.00
Cc1ccc2c(c1)c(CC(=O)O)c(C)n2C(=O)c1ccc(OC[C@@H]2CN(C)c3ccccc3O2)cc1 | Prostaglandin E2 receptor EP4 subtype (Mus musculus, UniProt P32240) | 5.44
Cc1cc2c(CC(=O)O)cccc2n1C(=O)c1ccc(OC[C@@H]2CN(C)c3ccccc3O2)cc1 | Prostaglandin E2 receptor EP4 subtype (Mus musculus, UniProt P32240) | < 5.00
COc1ccc2c(c1)c(CC(=O)O)c(C)n2C(=O)c1ccc(Cl)cc1 | Prostaglandin E2 receptor EP4 subtype (Mus musculus, UniProt P32240) | < 5.00

Next:
# assay system Prostaglandin E2 receptor EP4 subtype (Mus musculus, UniProt P32240): give pKi of `Cc1c(CC(=O)O)c2ccccc2n1C(=O)c1ccc(OC[C@@H]2CN(C)c3ccccc3O2)cc1Cl`
< 5.00

* * *

Listed below: Ki values for each entry.
assay_system: Prostaglandin E2 receptor EP1 subtype (Mus musculus)
Sequence (P35375 whole entry): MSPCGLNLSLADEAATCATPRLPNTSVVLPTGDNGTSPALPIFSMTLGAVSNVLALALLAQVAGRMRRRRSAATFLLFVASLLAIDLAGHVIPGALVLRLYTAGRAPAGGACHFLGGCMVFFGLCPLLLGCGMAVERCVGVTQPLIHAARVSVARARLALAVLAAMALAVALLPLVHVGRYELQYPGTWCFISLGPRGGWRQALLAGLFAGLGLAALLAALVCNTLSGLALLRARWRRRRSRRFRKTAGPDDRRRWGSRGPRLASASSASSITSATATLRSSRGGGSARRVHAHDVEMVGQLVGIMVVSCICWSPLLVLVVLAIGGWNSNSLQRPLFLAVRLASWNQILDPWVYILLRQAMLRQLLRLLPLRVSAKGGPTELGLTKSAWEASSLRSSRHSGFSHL
experiment_summary: Displacement of [3H]-PGE2 from mouse EP1 receptor expressed in CHO cells after 20 mins by liquid scintillation counting
Type: cell-based

entry_smiles | Ki
Cc1cc(OC[C@@H]2CN(C)c3ccccc3O2)ccc1C(=O)n1c(C)c(CC(=O)O)c2ccccc21 | 2.9 µM
CCN1c2ccccc2C[C@@H]1COc1ccc(C(=O)n2c(C)c(CC(=O)O)c3ccccc32)c(C)c1 | > 10 µM

Consider the additional compound presented here.
Identify measured Ki associated with `Cc1c(CC(=O)O)c2cc(F)ccc2n1C(=O)c1ccc(OC[C@@H]2CN(C)c3ccccc3O2)cc1Cl`
> 10 µM

* * *

Sequence of the target: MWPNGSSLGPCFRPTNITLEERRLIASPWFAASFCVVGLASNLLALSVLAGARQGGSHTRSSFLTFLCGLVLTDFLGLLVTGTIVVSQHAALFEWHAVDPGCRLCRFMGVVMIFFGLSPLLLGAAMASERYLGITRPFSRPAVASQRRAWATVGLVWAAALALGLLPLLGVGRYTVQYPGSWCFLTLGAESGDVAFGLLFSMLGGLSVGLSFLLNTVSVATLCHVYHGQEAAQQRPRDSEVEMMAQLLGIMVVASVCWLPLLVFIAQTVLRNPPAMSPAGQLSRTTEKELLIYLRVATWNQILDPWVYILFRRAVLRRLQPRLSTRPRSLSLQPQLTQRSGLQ
endpoint_name: Ki

entry_smiles | observed
Cc1c(CC(=O)O)c2ccccc2n1C(=O)c1ccc(OC[C@@H]2CN(C)c3ccccc3O2)cc1 | > 10 µM

Kindly indicate its recorded Ki. Item: `Cc1ccc2c(c1)c(CC(=O)O)c(C)n2C(=O)c1ccc(OC[C@@H]2CN(C)c3ccccc3O2)cc1`
> 10 µM

* * *

assay_system: Prostaglandin D2 receptor (Mus musculus, UniProt P70263)
Sequence (P70263 whole entry): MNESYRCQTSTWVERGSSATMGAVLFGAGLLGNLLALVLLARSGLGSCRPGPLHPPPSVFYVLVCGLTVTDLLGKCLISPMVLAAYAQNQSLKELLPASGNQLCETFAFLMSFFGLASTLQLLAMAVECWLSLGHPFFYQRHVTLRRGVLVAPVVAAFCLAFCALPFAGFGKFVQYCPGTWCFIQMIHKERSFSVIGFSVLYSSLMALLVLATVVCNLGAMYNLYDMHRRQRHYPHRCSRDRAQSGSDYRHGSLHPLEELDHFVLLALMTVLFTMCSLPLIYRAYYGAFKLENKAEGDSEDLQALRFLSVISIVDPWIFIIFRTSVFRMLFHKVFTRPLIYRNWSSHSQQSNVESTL
experiment_summary: Antagonist activity at mouse DP receptor expressed in CHO cells assessed as inhibition of PGD2-induced cAMP accumulation after 10 mins by enzyme immunoassay in the presence of 0.1% BSA
endpoint_name: IC50 (nM)

Sample answers from the record:
compound | unit_of_measurement | IC50
Cc1c(CC(=O)O)c2ccccc2n1C(=O)c1ccc(OC[C@@H]2CN(C)c3ccccc3O2)cc1Cl | nM | 2.2
Cc1cc2c(CC(=O)O)cccc2n1C(=O)c1ccc(OC[C@@H]2CN(C)c3ccccc3O2)cc1 | nM | 2.4
Cc1cc(C(=O)n2c(C)c(CC(=O)O)c3cc(F)ccc32)c(C)cc1OC[C@@H]1CN(C)c2ccccc2O1 | nM | 2.8
CCN1c2ccccc2C[C@@H]1COc1ccc(C(=O)n2c(C)c(CC(=O)O)c3ccccc32)c(C)c1 | nM | 2.2
CCN1c2ccccc2CC1COc1ccc(C(=O)n2c(C)c(CC(=O)O)c3ccccc32)c(C)c1 (configuration not stated) | nM | 3.1
Cc1c(OC[C@@H]2CN(C)c3ccccc3O2)ccc(C(=O)n2c(C)c(CC(=O)O)c3cc(F)ccc32)c1C | nM | 32
Cc1cc(OC[C@@H]2COc3ccccc32)ccc1C(=O)n1c(C)c(CC(=O)O)c2ccccc21 | nM | 72
Cc1c(CC(=O)O)c2cc(F)ccc2n1C(=O)c1ccc(OC[C@@H]2CN(C)c3ccccc3O2)cc1Cl | nM | 1.6
COc1cc(C(=O)n2c(C)c(CC(=O)O)c3cc(F)ccc32)ccc1OC[C@@H]1CN(C)c2ccccc2O1 | nM | 68
Cc1c(CC(=O)O)c2ccccc2n1C(=O)c1ccc(OC[C@@H]2CN(C)c3ccccc3O2)cc1F | nM | 2.5

a: Cc1cc(OC[C@@H]2COc3ccc(F)cc32)ccc1C(=O)n1c(C)c(CC(=O)O)c2ccccc21
b: Cc1c(CC(=O)O)c2cc(Cl)ccc2n1C(=O)c1ccc(OC[C@@H]2CN(C)c3ccccc3O2)cc1
# returns the entry with the larger IC50; inputs a and b Respond with the label that goes with your answer.
b
(b: 3.1 nM, a: 1.8 nM)

* * *

assay_system: Prostaglandin D2 receptor (Mus musculus, UniProt P70263)
experiment_summary: Displacement of [3H]-PGD2 from mouse DP receptor expressed in CHO cells after 20 mins by liquid scintillation counting
endpoint_name: Ki (nM)

entry_smiles | observed
Cc1cc2c(CC(=O)O)cccc2n1C(=O)c1ccc(OC[C@@H]2CN(C)c3ccccc3O2)cc1 | 16
COc1ccc2c(c1)c(CC(=O)O)c(C)n2C(=O)c1ccc(OC[C@@H]2CN(C)c3ccccc3O2)cc1 | 9.9
Cc1c(CC(=O)O)c2ccccc2n1C(=O)c1ccc(OC[C@@H]2CN(C)c3ccccc3O2)cc1 | 7.7

a: Cc1cc(C(=O)n2c(C)c(CC(=O)O)c3cc(F)ccc32)c(C)cc1OC[C@@H]1CN(C)c2ccccc2O1
b: Cc1c(CC(=O)O)c2cc(F)ccc2n1C(=O)c1ccc(OC[C@@H]2CN(C)c3ccccc3O2)cc1
c: Cc1c(CC(=O)O)c2ccccc2n1C(=O)c1ccc(OC[C@@H]2CN(C)c3ccccc3O2)cc1F
In this exercise, place the 3 molecules in ascending sequence of their recorded Ki. List the labels, following the order given in the request.
c, b, a
(c: 3.8 nM, b: 5.7 nM, a: 14 nM)

1: Cc1cc(OC[C@@H]2Cc3ccccc3O2)ccc1C(=O)n1c(C)c(CC(=O)O)c2ccccc21
2: Cc1c(CC(=O)O)c2ccccc2n1C(=O)c1ccc(OC[C@@H]2CN(C)c3ccccc3O2)cc1Cl
Between 1 and 2 , which one shows the smaller Ki number? When you have decided, please share the label of that item.
2
(2: 4.4 nM, 1: 7.1 nM)

* * *

assay_system: Prostaglandin D2 receptor (Mus musculus, UniProt P70263)
experiment_summary: Antagonist activity at mouse DP receptor expressed in CHO cells assessed as inhibition of PGD2-induced cAMP accumulation after 10 mins by enzyme immunoassay in the presence of 0.1% BSA
endpoint_name: IC50 (nM)

Consider the worked cases shown below.
entry_smiles | unit_of_measurement | IC50
Cc1cc(OC[C@@H]2Cc3ccccc3O2)ccc1C(=O)n1c(C)c(CC(=O)O)c2ccccc21 | nM | 7
Cc1cc(OC[C@@H]2COc3ccccc3O2)ccc1C(=O)n1c(C)c(CC(=O)O)c2ccccc21 | nM | 3.8
Cc1ccc2c(c1)c(CC(=O)O)c(C)n2C(=O)c1ccc(OC[C@@H]2CN(C)c3ccccc3O2)cc1 | nM | 4.3

1: Cc1c(CC(=O)O)c2cc(F)ccc2n1C(=O)c1ccc(OC[C@@H]2CN(C)c3ccccc3O2)cc1F
2: Cc1cc(C(=O)n2c(C)c(CC(=O)O)c3cc(F)ccc32)ccc1OC[C@@H]1CN(C)c2ccccc2O1
Higher IC50: 1 or 2 ? Record your answer as the label of the chosen record.
2
(2: 42 nM, 1: 0.7 nM)
